tested on: VISA HIP07256 (NRS19); assay: MIC/MBC broth microdilution, NRS19 (VISA HIP07256); type: cell-based; conditions: Staphylococcus aureus; Table 8; NRS19 (VISA); read-out: MIC
Provide the recorded MIC for the entries that follow.
Unit µM implied. Number only.

Challenge: So what does the record say about MIC for C/C(=N/NC(=N)N)c1sc(-c2ccc(-c3ccc(F)cc3)cc2)nc1C ?
Response given: 16

Challenge: So what does the record say about MIC for C/C(=N/NC(=N)N)c1sc(-c2ccc(-c3cccc4ccccc34)cc2)nc1C ?
Response given: 4

----------
Provide the recorded log10 of MBC for the entries that follow.
test system: NRS119; experiment: MIC/MBC broth microdilution, NRS119; assay type: cell-based; conditions: Staphylococcus aureus; Table 8; NRS119; read-out: MBC
Answers are given as log10 of MBC in µM.

Challenge: So what does the record say about log10 of MBC for C/C(=N/NC(=N)N)c1sc(-c2ccc(-c3ccc(F)cc3)cc2)nc1C ?
Response given: 1.51

Challenge: So what does the record say about log10 of MBC for C/C(=N/NC(=N)N)c1sc(-c2ccc(-c3ccc(C(F)(F)F)cc3)cc2)nc1C ?
Response given: 1.20

Challenge: So what does the record say about log10 of MBC for CCCCC#Cc1ccc(-c2nc(C)c(/C(C)=N/NC(=N)N)s2)cc1 ?
Response given: 0.60

Challenge: So what does the record say about log10 of MBC for CCCCc1ccc(-c2nc(C)c(/C(C)=N/NC(=N)N)s2)cc1 ?
Response given: 0.90

Challenge: So what does the record say about log10 of MBC for C/C(=N/NC(=N)N)c1sc(-c2ccc(-c3cccc4ccccc34)cc2)nc1C ?
Response given: 0.60

Challenge: So what does the record say about log10 of MBC for C/C(=N\NC(=N)N)c1sc(-c2ccc(N)cc2)nc1C ?
Response given: 1.81

Challenge: So what does the record say about log10 of MBC for CC(=O)c1ccc(-c2ccc(-c3nc(C)c(/C(C)=N\NC(=N)N)s3)cc2)cc1 ?
Response given: 1.51
